target: Leucine-rich repeat serine/threonine-protein kinase 2 (Homo sapiens); experiment: Inhibition of wild type human recombinant LRRK2 expressed in baculovirus using fluorescein-ERM as substrate preincubated for 30 mins followed by substrate addition measured after 1 hr by TR-FRET assay
Quantity Kind: IC50
Answer as a quantity: numeral, then unit.

Parameters: items (list). Returns: IC50 for each item.
1. Nc1cc(-c2n[nH]c3ccc(Nc4ccccc4)cc23)ccn1
2. CN(c1cccc(S(C)(=O)=O)c1)c1ccc2[nH]nc(-c3ccncc3)c2c1

1: 0.728 µM; 2: 0.044 µM

---

molecular target: Leucine-rich repeat serine/threonine-protein kinase 2 (Homo sapiens, UniProt Q5S007, G2019S); assay: Inhibition LRRK2 G2019S mutant Ser935 phosphorylation in human SH-SY5Y cells after 90 mins by Western blot analysis; format: cell-based
Sequence (Q5S007 whole entry G2019S): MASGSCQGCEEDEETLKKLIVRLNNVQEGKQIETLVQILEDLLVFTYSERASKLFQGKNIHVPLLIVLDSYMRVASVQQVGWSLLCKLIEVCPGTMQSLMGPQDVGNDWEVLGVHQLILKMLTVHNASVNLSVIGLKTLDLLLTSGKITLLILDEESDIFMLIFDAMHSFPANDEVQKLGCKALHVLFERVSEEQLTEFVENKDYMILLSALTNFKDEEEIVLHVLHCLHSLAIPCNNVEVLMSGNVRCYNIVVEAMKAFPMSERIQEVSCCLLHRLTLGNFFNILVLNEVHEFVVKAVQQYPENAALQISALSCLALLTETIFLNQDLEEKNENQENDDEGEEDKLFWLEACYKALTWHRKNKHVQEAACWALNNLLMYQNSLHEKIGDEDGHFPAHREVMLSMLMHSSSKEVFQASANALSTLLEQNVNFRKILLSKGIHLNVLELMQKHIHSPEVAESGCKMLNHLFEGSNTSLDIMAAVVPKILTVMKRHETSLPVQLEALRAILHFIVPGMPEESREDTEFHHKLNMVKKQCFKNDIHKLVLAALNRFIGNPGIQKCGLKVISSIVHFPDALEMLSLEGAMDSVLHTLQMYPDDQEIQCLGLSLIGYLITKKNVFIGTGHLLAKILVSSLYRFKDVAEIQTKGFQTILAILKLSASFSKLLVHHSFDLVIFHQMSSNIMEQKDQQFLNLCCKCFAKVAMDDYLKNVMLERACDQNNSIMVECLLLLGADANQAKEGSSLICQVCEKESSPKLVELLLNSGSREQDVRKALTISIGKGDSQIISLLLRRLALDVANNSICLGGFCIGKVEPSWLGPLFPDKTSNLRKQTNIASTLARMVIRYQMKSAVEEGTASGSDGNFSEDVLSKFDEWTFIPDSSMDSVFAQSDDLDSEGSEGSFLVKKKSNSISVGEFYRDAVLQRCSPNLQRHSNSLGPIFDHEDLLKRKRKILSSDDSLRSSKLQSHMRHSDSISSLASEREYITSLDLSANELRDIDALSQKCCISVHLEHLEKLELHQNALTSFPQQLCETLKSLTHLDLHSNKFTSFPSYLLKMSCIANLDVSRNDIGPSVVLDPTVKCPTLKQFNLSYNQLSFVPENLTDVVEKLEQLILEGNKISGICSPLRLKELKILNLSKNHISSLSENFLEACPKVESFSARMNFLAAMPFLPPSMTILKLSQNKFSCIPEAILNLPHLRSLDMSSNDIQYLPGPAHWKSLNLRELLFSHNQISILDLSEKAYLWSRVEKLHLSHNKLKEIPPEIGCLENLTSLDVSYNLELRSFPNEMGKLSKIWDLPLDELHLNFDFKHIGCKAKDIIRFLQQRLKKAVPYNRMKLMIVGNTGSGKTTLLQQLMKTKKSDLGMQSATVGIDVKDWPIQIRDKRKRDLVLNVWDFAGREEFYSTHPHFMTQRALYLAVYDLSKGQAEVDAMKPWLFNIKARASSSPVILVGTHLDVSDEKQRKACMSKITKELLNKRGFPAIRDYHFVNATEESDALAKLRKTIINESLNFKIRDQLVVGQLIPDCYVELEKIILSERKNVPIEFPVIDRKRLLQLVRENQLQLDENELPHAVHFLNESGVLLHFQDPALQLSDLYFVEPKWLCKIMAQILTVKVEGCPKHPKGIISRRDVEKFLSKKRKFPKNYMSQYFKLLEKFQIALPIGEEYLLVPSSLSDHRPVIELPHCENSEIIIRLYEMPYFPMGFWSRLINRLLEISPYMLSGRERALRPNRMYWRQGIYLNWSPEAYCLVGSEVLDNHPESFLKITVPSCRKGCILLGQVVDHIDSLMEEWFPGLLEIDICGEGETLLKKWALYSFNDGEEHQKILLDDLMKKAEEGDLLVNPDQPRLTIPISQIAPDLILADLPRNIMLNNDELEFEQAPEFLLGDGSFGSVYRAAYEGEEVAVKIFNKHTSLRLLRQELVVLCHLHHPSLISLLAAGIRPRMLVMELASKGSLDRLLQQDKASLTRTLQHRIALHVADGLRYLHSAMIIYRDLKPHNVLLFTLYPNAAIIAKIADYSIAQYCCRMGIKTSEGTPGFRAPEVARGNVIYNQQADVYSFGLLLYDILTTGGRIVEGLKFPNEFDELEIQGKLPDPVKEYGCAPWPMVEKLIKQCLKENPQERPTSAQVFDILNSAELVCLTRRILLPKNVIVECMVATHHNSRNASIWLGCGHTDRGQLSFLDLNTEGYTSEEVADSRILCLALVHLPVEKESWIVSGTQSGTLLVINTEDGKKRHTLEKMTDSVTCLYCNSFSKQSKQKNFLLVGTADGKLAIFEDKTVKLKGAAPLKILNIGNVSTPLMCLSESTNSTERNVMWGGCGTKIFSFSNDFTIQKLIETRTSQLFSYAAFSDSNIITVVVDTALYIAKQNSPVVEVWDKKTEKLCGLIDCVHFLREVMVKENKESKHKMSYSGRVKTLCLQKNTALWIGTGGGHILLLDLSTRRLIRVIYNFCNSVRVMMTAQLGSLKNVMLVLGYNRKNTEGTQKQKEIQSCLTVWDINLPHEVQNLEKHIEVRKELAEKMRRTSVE
Binning of IC50 into classes: interval 1 (below 40 nM), interval 2 (40 nM to below 60 nM), interval 3 (60 nM or more)

In plain terms, what class is CC(C)Oc1ccc2[nH]nc(-c3ccnc(N4CCN(C)CC4)c3)c2c1 ? interval 2
